# subject of test: Cytochrome P450 2E1 (Homo sapiens, UniProt P05181)
# Sequence (P05181 whole entry): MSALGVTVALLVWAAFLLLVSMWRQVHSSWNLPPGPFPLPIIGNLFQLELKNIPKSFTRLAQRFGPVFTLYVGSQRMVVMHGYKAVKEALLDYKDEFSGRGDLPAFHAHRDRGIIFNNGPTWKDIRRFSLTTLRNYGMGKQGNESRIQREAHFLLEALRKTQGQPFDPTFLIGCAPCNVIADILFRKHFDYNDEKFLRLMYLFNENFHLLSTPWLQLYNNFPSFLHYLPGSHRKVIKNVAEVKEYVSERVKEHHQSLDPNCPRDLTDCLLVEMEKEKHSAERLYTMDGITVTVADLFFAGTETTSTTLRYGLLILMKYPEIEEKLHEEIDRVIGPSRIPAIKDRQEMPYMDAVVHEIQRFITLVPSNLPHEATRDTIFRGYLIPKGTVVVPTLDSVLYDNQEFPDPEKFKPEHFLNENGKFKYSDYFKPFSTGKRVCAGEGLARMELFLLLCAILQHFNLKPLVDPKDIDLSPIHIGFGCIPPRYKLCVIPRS
# assay conditions: bti-tn-5b1-4
recorded endpoint: IC50

CC(C)(C)c1ccc(C(O)CCCN2CCC(C(O)(c3ccccc3)c3ccccc3)CC2)cc1 (stereo not drawn): Not Active
O=C(c1ccc(OCCN2CCCCC2)cc1)c1c(-c2ccc(O)cc2)sc2cc(O)ccc12: Not Active
Oc1ccc(OCc2ccccc2)cc1: Not Active

* * *

# subject of test: Substance-P receptor (Homo sapiens)
# Sequence (P25103 whole entry): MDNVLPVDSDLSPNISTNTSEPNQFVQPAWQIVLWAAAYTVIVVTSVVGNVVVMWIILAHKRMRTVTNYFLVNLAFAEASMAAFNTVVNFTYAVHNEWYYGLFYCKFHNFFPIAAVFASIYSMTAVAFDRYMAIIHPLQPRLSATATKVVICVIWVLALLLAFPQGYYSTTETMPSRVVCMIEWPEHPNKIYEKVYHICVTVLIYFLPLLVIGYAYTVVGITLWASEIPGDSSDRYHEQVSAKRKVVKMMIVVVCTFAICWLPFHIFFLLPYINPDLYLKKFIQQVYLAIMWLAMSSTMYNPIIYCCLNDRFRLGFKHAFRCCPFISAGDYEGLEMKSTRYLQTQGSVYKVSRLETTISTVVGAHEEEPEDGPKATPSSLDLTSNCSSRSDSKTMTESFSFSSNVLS
# Type: cell membranes, Membrane
# assay conditions: cho
recorded endpoint: IC50

O=C(N[C@H](CO)[C@H](O)c1ccc([N+](=O)[O-])cc1)C(Cl)Cl: Not Active
C#C[C@]1(OC(C)=O)CC[C@H]2[C@@H]3CCC4=CC(=O)CC[C@@H]4[C@H]3CC[C@@]21C [NORETHINDRONE ACETATE]: Not Active
CC(C(=O)O)c1cccc(C(=O)c2ccccc2)c1 (centres undefined): Not Active
CN1C(C(=O)Nc2ccccn2)=C(O)c2sccc2S1(=O)=O: Not Active

* * *

Provide the reported pIC50 of each item.
# subject of test: 5-hydroxytryptamine receptor 4 (Cavia porcellus, UniProt O70528)
# Sequence (O70528 whole entry): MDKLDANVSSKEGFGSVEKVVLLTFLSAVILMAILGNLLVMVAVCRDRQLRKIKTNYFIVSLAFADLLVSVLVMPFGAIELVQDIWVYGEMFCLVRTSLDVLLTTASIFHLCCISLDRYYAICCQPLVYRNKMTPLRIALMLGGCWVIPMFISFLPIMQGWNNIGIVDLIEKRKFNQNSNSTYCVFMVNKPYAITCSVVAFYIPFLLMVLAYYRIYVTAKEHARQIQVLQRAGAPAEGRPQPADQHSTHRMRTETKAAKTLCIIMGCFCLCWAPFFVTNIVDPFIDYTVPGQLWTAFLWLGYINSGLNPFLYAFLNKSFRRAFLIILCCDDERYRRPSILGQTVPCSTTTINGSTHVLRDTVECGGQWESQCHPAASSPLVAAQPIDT
# Type: cell membranes, Dunkin-Hartley, Striatum, Membrane
# assay conditions: read-out: IC50
Please note pIC50 is a logarithmic value: minus log10 of concentration in mol/L. Answer with that number alone.

Q) Answer with reported pIC50 of COc1cccc2c1C(=O)c1c(O)c3c(c(O)c1C2=O)C[C@@](O)(C(=O)CO)C[C@@H]3O[C@H]1C[C@H](N)[C@@H](O)[C@H](C)O1 [EPIRUBICIN]
A) 5.10

Q) Answer with reported pIC50 of COc1cccc2c1C(=O)c1c(O)c3c(c(O)c1C2=O)C[C@@](O)(C(=O)CO)C[C@@H]3O[C@H]1C[C@H](N)[C@H](O)[C@H](C)O1 [DOXORUBICIN]
A) 4.90

* * *

# assay summary: DRUGMATRIX: GABAA, Flunitrazepam, Central radioligand binding (ligand: [3H] Flunitrazepam)
# Type: cell membranes, Rattus norvegicus, Wistar, Brain, Membrane
# assay conditions: Not Active = under 50% inhibition at 10 µM
recorded endpoint: Ki

Previously resolved entries follow.
CC1=C(C(=O)O)N2C(=O)[C@@H](NC(=O)[C@H](N)c3ccccc3)[C@H]2SC1 [CEPHALEXIN ANHYDROUS]: Not Active
O=C1CC[C@H](N2C(=O)c3ccccc3C2=O)C(=O)N1: Not Active
CCc1c2c(nc3ccc(OC(=O)N4CCC(N5CCCCC5)CC4)cc13)-c1cc3c(c(=O)n1C2)COC(=O)[C@]3(O)CC: Not Active
CCN[C@@H]1C[C@H](N)[C@@H](O[C@H]2OC(CN)=CC[C@H]2N)[C@H](O)[C@H]1O[C@H]1OC[C@](C)(O)[C@H](NC)[C@H]1O: Not Active
O=C1CC2(CCCC2)CC(=O)N1CCCCN1CCN(c2ncccn2)CC1: Not Active
O=C(O)Cc1ccccc1Nc1c(Cl)cccc1Cl: Not Active
O=S(=O)([O-])CCS.[Na+]: Not Active
O=C(C1CCCCC1)N1CC(=O)N2CCc3ccccc3C2C1 (centres undefined): Not Active

Please find the next compound below.
Q) Answer with reported Ki of CN1C(=O)COc2c(C(=O)NC3CN4CCC3CC4)cc(Cl)cc21 (centres undefined)
A) Not Active
